Target: CDK12/CycK (Homo sapiens, UniProt Q9NYV4)
Sequence (Q9NYV4 with tags, fused parts or gaps): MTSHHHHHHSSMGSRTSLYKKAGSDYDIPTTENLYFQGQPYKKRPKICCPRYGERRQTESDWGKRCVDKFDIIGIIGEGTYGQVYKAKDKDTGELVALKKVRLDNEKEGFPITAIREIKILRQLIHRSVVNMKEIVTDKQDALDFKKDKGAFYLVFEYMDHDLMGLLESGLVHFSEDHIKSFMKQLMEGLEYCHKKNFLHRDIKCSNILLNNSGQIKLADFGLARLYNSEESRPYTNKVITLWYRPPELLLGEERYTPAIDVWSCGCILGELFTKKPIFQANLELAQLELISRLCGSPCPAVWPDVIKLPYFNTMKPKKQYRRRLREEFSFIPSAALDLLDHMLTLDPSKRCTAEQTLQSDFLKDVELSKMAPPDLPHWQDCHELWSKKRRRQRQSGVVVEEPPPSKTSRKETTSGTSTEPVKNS
Sequence (O75909 1-300 partner limits assumed): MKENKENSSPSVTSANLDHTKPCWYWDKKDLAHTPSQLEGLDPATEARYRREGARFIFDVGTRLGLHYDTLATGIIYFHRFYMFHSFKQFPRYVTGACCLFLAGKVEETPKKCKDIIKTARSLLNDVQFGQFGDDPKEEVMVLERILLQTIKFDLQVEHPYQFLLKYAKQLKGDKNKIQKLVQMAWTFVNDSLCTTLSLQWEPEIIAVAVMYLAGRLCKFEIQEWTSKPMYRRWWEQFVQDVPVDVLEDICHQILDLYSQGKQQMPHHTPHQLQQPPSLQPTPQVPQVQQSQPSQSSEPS
Assay: CDK12/CycK high ATP kinase assay (TR-FRET, 2 mM ATP)
Settings: 2 mM ATP (high ATP); median; read-out: CDK12/CyclinK, 2 mM ATP (high ATP), IC50-[mol/l] (median)
pIC50: −log10 of the molar value.
Each item that follows carries a reported pIC50.
RECORDED_METRIC: pIC50

INSERT INTO assay_data (molecule, recorded_metric, limit_qualifier, value) VALUES
  ('CN1CCN(c2nc(NCc3nc4ccccc4[nH]3)n3ncc(C4CC4)c3n2)CC1', 'pIC50', '<', 4.89),
  ('Fc1cc2nc(CNc3nc(N4C[C@H]5CC[C@@H](C4)N5)nc4c(C5CC5)cnn34)[nH]c2cc1Cl', 'pIC50', '=', 5.78),
  ('COc1cccc2[nH]c(CNc3nc(N4CCNCC4)nc4c(C5CC5)cnn34)nc12', 'pIC50', '=', 5.56),
  ('Fc1cccc(-c2nnc(CNc3nc(N4CCOCC4)nc4c(Br)cnn34)[nH]2)c1', 'pIC50', '=', 5.87),
  ('CC1(C)CN(c2nc(NCc3nc4ccccc4[nH]3)n3ncc(Br)c3n2)CCO1', 'pIC50', '=', 5.19),
  ('N[C@@H]1CN(c2nc(NCc3nc4ccccc4[nH]3)n3ncc(Br)c3n2)CC12CC2', 'pIC50', '=', 6.01),
  ('FC(F)(F)Oc1cccc(-c2cnc(CNc3nc(N4CCOCC4)nc4c(Br)cnn34)[nH]2)c1', 'pIC50', '=', 6.04),
  ('CN1CCN(c2nc(NCc3nc4c(F)c(F)ccc4[nH]3)n3ncc(C4CC4(F)F)c3n2)CC1 (centres unmarked)', 'pIC50', '<', 4.70),
  ('C[C@H]1COCCN1c1nc(NCc2nc3ccccc3[nH]2)n2ncc(Br)c2n1', 'pIC50', '=', 5.98),
  ('C[C@@H]1CCCCN1c1nc(NCc2nc3ccccc3[nH]2)n2ncc(Br)c2n1', 'pIC50', '=', 5.09),
  ('FC(F)(F)Cc1cnn2c(NCc3nc4cc(Cl)c(Cl)cc4[nH]3)nc(N3CCOCC3)nc12', 'pIC50', '=', 5.22),
  ('Brc1cnn2c(NCc3nc4ccccc4[nH]3)nc(NCC3CC3)nc12', 'pIC50', '=', 5.26),
  ('Cc1cc2nc(CNc3nc(N4CCOCC4)nc4c(C5CC5)cnn34)[nH]c2cc1C', 'pIC50', '=', 6.25),
  ('CN1CCN(c2nc(NCc3nc4cc(F)ccc4[nH]3)n3ncc(C4CC4)c3n2)CC1', 'pIC50', '<', 4.70),
  ('Clc1cccc(-c2cnn3c(NCc4nc5ccccc5[nH]4)nc(N4CCOCC4)nc23)c1', 'pIC50', '<', 4.70),
  ('CC(C)c1cnn2c(NCc3nc4ccccc4[nH]3)nc(N(C)C)nc12', 'pIC50', '<', 4.70),
  ('N[C@H]1[C@@H]2C[C@H]1CN(c1nc(NCc3nc4ccccc4[nH]3)n3ncc(Br)c3n1)C2', 'pIC50', '=', 5.47),
  ('Cc1cnn2c(NCc3nc4ccccc4[nH]3)nc(N3CC4CCC(C3)N4)nc12', 'pIC50', '<', 4.70),
  ('N[C@H]1CCN(c2nc(NCc3nc4ccccc4[nH]3)n3ncc(Br)c3n2)C1', 'pIC50', '<', 4.80),
  ('N#Cc1cnn2c(NCc3nc4ccccc4[nH]3)nc(N3CCOCC3)nc12', 'pIC50', '<', 4.77);
